pIC50 listing for selected compounds.
# Tested on: K98450-129-R-PDC complex spheroid growth, percent test/control;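 also: spheroids exposed to agents for seven days before the viability readout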
# test protocol: Anticancer human tumor K98450-129-R-PDC patient-derived colon adenocarcinoma cell line growth inhibition [RAS]
# condition: curve of first compound; second compound 0.01 µM
pIC50: −log10 of the molar value.

compound | pIC50
O=C(c1ccc(F)c(F)c1Nc1ccc(I)cc1F)N1CC(O)([C@@H]2CCCCN2)C1 + C=CC(=O)N1CCN(c2nc(OCC3CCCN3C)nc3c(F)c(-c4nc(N)cc(C)c4C(F)(F)F)c(Cl)cc23)C(C)C1 | 6.88
CC(Nc1ccc2c(c1)OCCn1cc(N3C(=O)OCC3C(F)F)nc1-2)C(N)=O (stereo not drawn) + C=CC(=O)N1CCN(c2nc(OCC3CCCN3C)nc3c(F)c(-c4nc(N)cc(C)c4C(F)(F)F)c(Cl)cc23)C(C)C1 | < 5.00

Let's switch to this compound now.
So what's the measured pIC50 for this one? NC1c2ccccc2OC12CCN(c1cnc3c(N4CCCc5ncccc54)n[nH]c3n1)CC2 (stereo not drawn) + C=CC(=O)N1CCN(c2nc(OCC3CCCN3C)nc3c(F)c(-c4nc(N)cc(C)c4C(F)(F)F)c(Cl)cc23)C(C)C1
> 7.50
